Target: T1, GPR10 (UniProt P49683 1-370, limits assumed)
T1 sequence (looked up): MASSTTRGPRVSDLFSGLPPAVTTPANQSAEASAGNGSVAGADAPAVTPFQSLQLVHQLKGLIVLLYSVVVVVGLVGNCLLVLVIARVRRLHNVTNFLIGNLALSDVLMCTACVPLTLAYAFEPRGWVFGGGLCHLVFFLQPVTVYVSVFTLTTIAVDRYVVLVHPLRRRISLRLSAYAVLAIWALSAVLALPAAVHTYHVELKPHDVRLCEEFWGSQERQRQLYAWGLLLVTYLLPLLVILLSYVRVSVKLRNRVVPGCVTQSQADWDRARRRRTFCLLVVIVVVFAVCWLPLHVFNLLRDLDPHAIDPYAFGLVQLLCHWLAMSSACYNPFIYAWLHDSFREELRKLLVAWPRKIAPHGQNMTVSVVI
Assay: cell-based or functional assay
Bridges are numbered along the chain shown (N, C = ends). Where no end group is shown, it is not given here. [ ]: non-standard residue; d: D form. hArg = N=C(N)NCCCC[C@H](N)C(=O)O; Nle = CCCC[C@H](N)C(=O)O; L3 = not defined here; L4 = not defined here; L7 = not defined here; L8 = not defined here
Measured GPR10 EC50 10% FBS by item
Hi! Could you send only the number? It should be in nM, unit omitted.

Study these solved cases before continuing.
SRAHQCS[Nle]ETRTCDINPAWYTG[hArg]GIRPVGRF-NH2 (linker 6-13 via L8; reading uncertain) [Conjugate 267] :: 830
SRAHQCS[Nle]ETRTCDINPAWYTG[hArg]GIRPVGRF-NH2 (linker 6-13 via L4; reading uncertain) [Conjugate 259] :: 26
SRAHQCS[Nle]ETRTCDINPAWYTG[hArg]GIRPVGRF-NH2 (linker 6-13 via L3; reading uncertain) [Conjugate 255] :: 9.1

Tell us which GPR10 EC50 10% FBS value is on record for SRAHQCS[Nle]ETRTCDINPAWYTG[hArg]GIRPVGRF-NH2 (linker 6-13 via L7; reading uncertain) [Conjugate 271]
39

The measured values listed here are drawn from patent US20230071371A1.
